B1: Caulobacter ParB omega fusion; a variant is named by its letters at X, in order, B8GW30 (parent)
chain: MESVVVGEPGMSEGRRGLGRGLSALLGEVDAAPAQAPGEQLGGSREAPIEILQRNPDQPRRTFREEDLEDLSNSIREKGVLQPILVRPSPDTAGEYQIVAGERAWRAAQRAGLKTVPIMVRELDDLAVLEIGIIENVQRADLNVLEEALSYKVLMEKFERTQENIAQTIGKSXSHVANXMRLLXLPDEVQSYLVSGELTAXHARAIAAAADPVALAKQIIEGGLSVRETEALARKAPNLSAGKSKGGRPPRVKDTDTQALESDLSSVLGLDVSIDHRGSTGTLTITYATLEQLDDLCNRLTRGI

# Variants of: B1
# protocol-notes: one-hybrid fitness for binding NBS DNA (the Noc-binding site; scaled: cognate 1, non-cognate 0); higher = stronger binding
# assay-context: with NBS DNA site
The full ranking holds about 81,000 sequences; the median of “one-hybrid fitness for binding NBS DNA” is about -0.1, and the highest 2% start at about 0.36. This is one part of a sample in which the highest values are shown more often than they occur.
readout-kind: one-hybrid fitness for binding NBS DNA

These solved cases illustrate the format of a correct answer.
Look up one-hybrid fitness for binding NBS DNA: CGYR
≤ 0.2

Follow-up entry: TRKP
≤ 0.2

Now the same for FGAR
0.385

Another variant: NGAE
≤ 0.2

What do we get for CGVE ?
≤ 0.2

Ok, now YRKR
0.377

Please find the next variant below.
Any idea what its one-hybrid fitness for binding NBS DNA is? The variant is HRYR
≤ 0.2
